Target: T1, human high affinity trimeric IL-2 receptor (CD25/CD122/CD132) (human, UniProt P01589 22-272; P14784 27-551; P31785 23-369)
T1 sequence 1: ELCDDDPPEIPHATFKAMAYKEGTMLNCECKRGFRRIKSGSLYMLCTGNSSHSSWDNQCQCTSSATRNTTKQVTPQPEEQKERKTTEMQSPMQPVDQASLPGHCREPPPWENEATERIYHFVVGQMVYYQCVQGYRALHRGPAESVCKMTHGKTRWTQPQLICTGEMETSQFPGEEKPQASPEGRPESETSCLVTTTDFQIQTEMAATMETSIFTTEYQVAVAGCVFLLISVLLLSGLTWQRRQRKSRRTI
T1 sequence 2: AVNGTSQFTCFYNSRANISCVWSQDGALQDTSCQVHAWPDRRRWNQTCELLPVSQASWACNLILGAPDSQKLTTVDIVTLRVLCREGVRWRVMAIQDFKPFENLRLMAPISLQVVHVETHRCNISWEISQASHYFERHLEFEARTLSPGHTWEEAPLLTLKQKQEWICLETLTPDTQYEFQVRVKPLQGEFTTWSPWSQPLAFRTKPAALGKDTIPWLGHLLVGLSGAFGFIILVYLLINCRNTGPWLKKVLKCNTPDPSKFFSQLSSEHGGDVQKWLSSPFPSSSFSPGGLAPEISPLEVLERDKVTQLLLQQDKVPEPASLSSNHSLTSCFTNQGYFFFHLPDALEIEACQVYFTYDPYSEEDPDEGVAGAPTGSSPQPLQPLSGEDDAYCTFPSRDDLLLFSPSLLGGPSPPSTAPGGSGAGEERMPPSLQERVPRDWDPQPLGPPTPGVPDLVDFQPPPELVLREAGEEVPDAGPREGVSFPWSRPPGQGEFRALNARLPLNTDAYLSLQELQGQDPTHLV
T1 sequence 3: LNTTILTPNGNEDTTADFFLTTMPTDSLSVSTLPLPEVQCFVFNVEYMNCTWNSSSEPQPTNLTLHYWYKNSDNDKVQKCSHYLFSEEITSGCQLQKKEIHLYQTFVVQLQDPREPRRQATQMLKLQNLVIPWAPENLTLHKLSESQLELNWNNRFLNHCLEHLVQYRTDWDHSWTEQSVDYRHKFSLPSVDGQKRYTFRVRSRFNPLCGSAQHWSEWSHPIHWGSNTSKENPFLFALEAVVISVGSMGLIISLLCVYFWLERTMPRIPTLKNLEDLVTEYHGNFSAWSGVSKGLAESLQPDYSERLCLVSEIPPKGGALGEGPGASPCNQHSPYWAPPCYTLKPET
Experiment: cell-based or functional assay
Quick rule for you: pSTAT5 ratio YT CD25/YT, dilution factor 64, upper table at 10 or higher means Yes, lower means No.

Completed entries (count: 4):
Decide: is the reported value of pSTAT5 ratio YT CD25/YT, dilution factor 64, upper table for AEH (ligand) cytokine: APTSSSTKKTQLQLEHLALDLEMILNGINNYKNPKLTRMLTFKFYMPKKATELKHLQCLEEELKPLEEVLNLAQSKNFHLRPRDLISNINVIVLELKGSETTFMCEYADETATIVEFLNRWITFCHSIISTLT equal to or greater than 10?
Yes

Try this binder too: hIL2 mutein REK (L18R, Q22E, Q126K) (ligand) APTSSSTKKTQLQLEHLRLDLEMILNGINNYKNPKLTRMLTFKFYMPKKATELKHLQCLEEELKPLEEVLNLAQSKNFHLRPRDLISNINVIVLELKGSETTFMCEYADETATIVEFLNRWITFCKSIISTLT
Yes

What would you report for GEH (ligand) cytokine: APTSSSTKKTQLQLEHLGLDLEMILNGINNYKNPKLTRMLTFKFYMPKKATELKHLQCLEEELKPLEEVLNLAQSKNFHLRPRDLISNINVIVLELKGSETTFMCEYADETATIVEFLNRWITFCHSIISTLT ?
Yes

// next record hIL2 mutein REE (L18R, Q22E, Q126E) (ligand) APTSSSTKKTQLQLEHLRLDLEMILNGINNYKNPKLTRMLTFKFYMPKKATELKHLQCLEEELKPLEEVLNLAQSKNFHLRPRDLISNINVIVLELKGSETTFMCEYADETATIVEFLNRWITFCESIISTLT
Yes

Next:
hey, is pSTAT5 ratio YT CD25/YT, dilution factor 64, upper table for this one >= 10? FEH (ligand) cytokine: APTSSSTKKTQLQLEHLFLDLEMILNGINNYKNPKLTRMLTFKFYMPKKATELKHLQCLEEELKPLEEVLNLAQSKNFHLRPRDLISNINVIVLELKGSETTFMCEYADETATIVEFLNRWITFCHSIISTLT
No

Further, for IEH (ligand) cytokine: APTSSSTKKTQLQLEHLILDLEMILNGINNYKNPKLTRMLTFKFYMPKKATELKHLQCLEEELKPLEEVLNLAQSKNFHLRPRDLISNINVIVLELKGSETTFMCEYADETATIVEFLNRWITFCHSIISTLT ?
No

Then this binder: EEH (ligand) cytokine: APTSSSTKKTQLQLEHLELDLEMILNGINNYKNPKLTRMLTFKFYMPKKATELKHLQCLEEELKPLEEVLNLAQSKNFHLRPRDLISNINVIVLELKGSETTFMCEYADETATIVEFLNRWITFCHSIISTLT
Yes

The reported numbers originate from patent US20210275641A1.
